Known pIC50 of a selection of molecules
experiment: Cytotoxicity against human SMMC7721 cells assessed as cell viability after 48 hrs by MTS assay; assay type: functional, cell-based; settings: SMMC-7721, 48 h
Please treat pIC50 as minus the base-10 logarithm of the molar concentration.

INSERT INTO measurements (molecule, numericreadout) VALUES
  ('C=C1C(=O)[C@]23C[C@@H]1C[C@@H](O)[C@H]2[C@@]12CO[C@@H](O)[C@@H]1C(C)(C)CC[C@@H]2OC3=O', 4.94),
  ('C=C1C(=O)[C@]23C[C@@H]1CC[C@H]2C12[C@H](OC)O[C@@H](O)[C@@H]1C(C)(C)CC[C@@H]2OC3=O (some centres not stated)', 5.30),
  ('C=C1C(=O)[C@]23C[C@@H]1CC[C@H]2C12C(O)O[C@@H](OC)[C@@H]1C(C)(C)CC[C@@H]2OC3=O (some centres not stated)', 5.38),
  ('C=C1C(=O)[C@]23C[C@@H]1CC[C@H]2C12CO[C@@H](O)[C@@H]1C(C)(C)[C@@H](O)C[C@@H]2OC3=O (some centres not stated)', 5.01);

Now, please, on to the next molecule.
Query: Form field: reported pIC50 of `C=C1C(=O)[C@]23C[C@@H]1CC[C@H]2[C@@]12CO[C@@H](O)[C@@H]1C(C)(C)CC[C@@H]2OC3=O`
Reply: 5.48

###

Recorded inhibition of growth at 40 µM for the following compounds
experiment: Cytotoxicity against human HL60 cells assessed growth inhibition at 40 uM after 48 hrs by MTS assay relative to control; format: functional; settings: HL-60, 48 h, read-out: GI

INSERT INTO measurements (compound, result) VALUES
  ('C=C1C(=O)[C@]23C[C@@H]1CC[C@H]2C12[C@@H](OC)O[C@@H](O)[C@@H]1C(C)(C)CC[C@@H]2OC3=O (stereo partly drawn)', '> 50%'),
  ('C=C1C(=O)[C@@]23C[C@@H]1C[C@H]1O[C@@H]4OC[C@]5([C@H](CCC(C)(C)[C@@H]45)OC2=O)[C@H]13', '> 50%');

Query: Please look up its inhibition of growth at 40 µM: `C=C1C(=O)[C@]23C[C@@H]1C[C@@H](O)[C@H]2[C@@]12CO[C@@H](O)[C@@H]1C(C)(C)CC[C@@H]2OC3=O`
Reply: > 50%

###

Reported values of pIC50 for individual entries
system: SW480; test: Cytotoxicity against human SW480 cells assessed as cell viability after 48 hrs by MTS assay; assay type: functional, cell-based; conditions: SW480, 48 h
pIC50: −log10 of the molar value.

Below, 3 compounds whose answers are already recorded.
INSERT INTO assay_data (compound, measuredquantity, result) VALUES
  ('C=C1C(=O)[C@]23C[C@@H]1CC[C@H]2C12CO[C@@H](O)[C@@H]1C(C)(C)[C@@H](O)C[C@@H]2OC3=O (some centres undefined)', 'pIC50', 5.26),
  ('C[C@H]1C(=O)[C@]23C[C@@H]1CC[C@H]2C12CO[C@@H](O)[C@@H]1C(C)(C)[C@@H](O)C[C@@H]2OC3=O (some centres undefined)', 'pIC50', '< 4.40'),
  ('CO[C@@H]1O[C@@H](O)[C@@H]2C(C)(C)CC[C@@H]3OC(=O)[C@@]45C[C@H](CC[C@H]4C132)[C@@H](C)C5=O (some centres undefined)', 'pIC50', '< 4.40');

Read the next record carefully.
Query: What does the data say about its pIC50? Entry: C=C1C(=O)[C@]23C[C@@H]1C[C@@H](O)[C@H]2C12C(O)O[C@@H]4OC(O)[C@](C)(CC[C@@H]1OC3=O)[C@@H]42 (some centres undefined)
Reply: < 4.40

Where do these numbers come from? They come from ChEMBL document CHEMBL3779809.
